Reported pEC50 values for a set of binders
target-under-test: T1, ZIKV prM/E polyprotein on virus-like particles (VLPs) from HEK293T/17 cells (Zika virus, UniProt A0A024B7W1 123-795)
T1 construct: also called ZIKV prM/E VLPs; Zika prM/E VLPs
assay-name: MSD ECL, VLPs on plate
For clarity, pEC50 is expressed as the negative log10 of concentration in mol/L.

{"columns": ["binder", "result"],
 "data": [
  ["H4H25630P (antibody, V domains shown) VH: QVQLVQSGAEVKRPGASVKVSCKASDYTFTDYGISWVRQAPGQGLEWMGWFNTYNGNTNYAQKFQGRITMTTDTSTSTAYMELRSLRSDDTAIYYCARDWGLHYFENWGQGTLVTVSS VL: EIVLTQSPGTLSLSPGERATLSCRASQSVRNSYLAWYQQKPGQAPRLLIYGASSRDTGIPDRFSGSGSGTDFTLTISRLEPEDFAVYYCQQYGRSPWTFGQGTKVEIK", 9.66]
]}

QUERY: Entry H4H25703N (antibody, V domains shown) VH: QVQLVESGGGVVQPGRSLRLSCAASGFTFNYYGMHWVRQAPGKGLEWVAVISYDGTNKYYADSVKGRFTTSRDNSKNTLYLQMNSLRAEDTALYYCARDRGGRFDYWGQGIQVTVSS VL: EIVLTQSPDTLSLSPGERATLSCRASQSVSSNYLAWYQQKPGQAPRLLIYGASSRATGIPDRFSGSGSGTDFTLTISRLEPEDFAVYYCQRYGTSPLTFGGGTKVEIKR : reported pEC50 = ?
RESULT: 10.07

QUERY: Cool, now H4H25710N (antibody, V domains shown) VH: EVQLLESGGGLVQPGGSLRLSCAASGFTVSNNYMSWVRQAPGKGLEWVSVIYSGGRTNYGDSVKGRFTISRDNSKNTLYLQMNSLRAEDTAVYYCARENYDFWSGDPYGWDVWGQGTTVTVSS VL: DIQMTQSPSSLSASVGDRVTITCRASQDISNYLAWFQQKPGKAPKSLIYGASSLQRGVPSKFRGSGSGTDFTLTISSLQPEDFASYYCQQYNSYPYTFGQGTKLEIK
RESULT: 9.27
